Where do the numbers come from? From the supplement of paper PMC11208160.

# ASSAY_COMMENT: recombinant barcode read abundance after kanamycin selection (control-corrected) (log10(CPM+1)); higher = more efficient recombination; sequences stand for … in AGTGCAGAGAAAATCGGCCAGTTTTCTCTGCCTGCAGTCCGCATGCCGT…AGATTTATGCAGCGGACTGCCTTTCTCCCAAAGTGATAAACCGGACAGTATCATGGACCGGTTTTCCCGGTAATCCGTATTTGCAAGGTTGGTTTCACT; site = the 11-nt target;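 note: IS621 recombinase and bridge RNA in Escherichia coli cells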
MEASURED_ENDPOINT: recombinant barcode read abundance (log10)
Answers are plain numbers.

Please review the following examples before continuing.
- SEQ_STRING: "GTGTACCCTTGGGTTCTAACCTGTTGCGT (site GTGTACCCTCC)"
  DATA_VALUE: 1.66
- SEQ_STRING: "ATGCGTTCTTGGGTTCTAACCTGTTGCCT (site AGGTGTTCTAG)"
  DATA_VALUE: 0.203
- SEQ_STRING: "CCTCGGGCTTGGGTTCTAACCTGTTGCAG (site CTTCGGGCTCT)"
  DATA_VALUE: 0.101
- SEQ_STRING: "CTACCAGCTTGGGTTCTAACCTGTTGCCT (site CTACCACCTAG)"
  DATA_VALUE: 0.0143
- SEQ_STRING: "AGGTGTTCTTGGGTTCTAACCTGTTGCCT (site AGGTGTTCTAG)"
  DATA_VALUE: 0.716

Here are 5 sequences. What values of recombinant barcode read abundance (log10) were reported for them?
1. GGCAAGACTTGGGTTCTAACCTGTTGCCT (site GGAAAGACTAG)
2. AATCGAACTTGGGTTCTAACCTGTTGCCT (site GATCGAACTAG)
3. CGGAAGGCTTGGGTTCTAACCTGTTGCCT (site CGGAAGTCTAG)
4. GACGGCACTTGGGTTCTAACCTGTTGCGG (site TCTCATGCTAT)
5. AATTAAGCTTGGGTTCTAACCTGTTGCCT (site AATTAAGCTAG)

// result
[0, 0.15, 0.401, 0.166, 1.28]

Here are 3 sequences. What values of recombinant barcode read abundance (log10) were reported for them?
1. AGTCAGCCTTGGGTTCTAACCTGTTGCCT (site AGTAAGCCTAG)
2. AGTCAGCCTTGGGTTCTAACCTGTTGCCT (site AGTTAGCCTAG)
3. CCTTCCTCTTGGGTTCTAACCTGTTGCCT (site CCTTCCTCTAG)

// result
1: 0.0129; 2: 0.133; 3: 0.599

Here are 6 sequences. What values of recombinant barcode read abundance (log10) were reported for them?
1. TACTTAACTTGGGTTCTAACCTGTTGCCT (site TACTCAACTAG)
2. ACATAAGCTTGGGTTCTAACCTGTTGCCT (site CATCGGACTCT)
3. CAATCACCTTGGGTTCTAACCTGTTGCTT (site CAAGCACCTAA)
4. AATCGAACTTGGGTTCTAACCTGTTGCCT (site AATCGAACTAG)
5. CGGAAGGCTTGGGTTCTAACCTGTTGCCT (site CGGAAGCCTAG)
6. GACACGCCTTGGGTTCTAACCTGTTGCCT (site GACACGCCTAA)

// result
1: 0.00663; 2: 0.116; 3: 0.027; 4: 0.297; 5: 0.0918; 6: 0.301

Here are 5 sequences. What values of recombinant barcode read abundance (log10) were reported for them?
1. GTGTCCTCTTGGGTTCTAACCTGTTGCGT (site CAAAAGGCTCG)
2. TAACGTACTTGGGTTCTAACCTGTTGCAT (site TAACGTACTAT)
3. CTGGTGCCTTGGGTTCTAACCTGTTGCCT (site CAGGTGCCTAG)
4. ATCGTTCCTTGGGTTCTAACCTGTTGCGT (site ACCGGTCCTAC)
5. ATTAAGACTTGGGTTCTAACCTGTTGCCT (site ATGAAGACTAG)

// result
1. 0.039
2. 0.696
3. 0.808
4. 0.0508
5. 0.11
